biological target: mmCRBN (MG-PACE circuit, SD56) (Mus musculus); construct: mouse cereblon in mmCRBN MG-PACE circuit, partner SD56 (evolved ZF degron), in E. coli; assay: Two-hybrid luciferase transcriptional activation in PMBN-permeabilized E. coli by compound-induced ternary complex of mouse CRBN with evolved degron, about 1 h at 37 °C, four-parameter fit.; conditions: n = 3
experimental-readout: pEC50
Units for pEC50: none; it is -log10 of a concentration expressed in mol/L.

Entry O=C1CCC(N2C(=O)c3ccc(N4CCOCC4)cc3C2=O)C(=O)N1 (stereo not shown) , pEC50 reported as 6.65

---

Each item that follows carries a reported Kd.
biological target: DDB1•CRBN (Homo sapiens, UniProt Q96SW2); construct: made in house; assay: Competitive fluorescence anisotropy (polarization) vs thalidomide-Cy5; type: binding; settings: competition with thalidomide–Cy5; KD estimated from Ki
Return type: number; implicit unit nM.

molecule	Kd, nM
O=C1CCC(N2C(=O)c3cc(F)c(N4CCOCC4)cc3C2=O)C(=O)N1 (centres unmarked) [PK-1016]	1010

Entry O=C1CCC(N2C(=O)c3ccc(N4CCOCC4)cc3C2=O)C(=O)N1 (centres unmarked) [PT-179] : Kd on DDB1•CRBN (Homo sapiens, UniProt Q96SW2) = 587

src = paper PMC11203266
